Tested on: renal hypertensive rats
Assay: Antihypertensive activity in rats, p.o. (Table 4)
Type: in vivo, rat
Conditions: 100 mg/kg/day p.o.; 6th day, 0 h (immediately before administration)
Assay Endpoint: Changes of blood pressure (mmHg)
Output spec: scalar in mmHg, unitless text.

Below, 3 compounds whose answers are already recorded.
{"Compound": "NCCOP(=O)(O)OCCCNC(=O)COc1ccc(Oc2ccc(Cl)cc2)cc1", "Tested On": "renal hypertensive rats", "Units Of Measure": "mmHg", "Val": -11}
{"Compound": "CC(Oc1ccc(Oc2ccc(Cl)cc2)cc1)C(=O)NCCCOP(=O)(O)OCCN (centres unmarked)", "Tested On": "renal hypertensive rats", "Units Of Measure": "mmHg", "Val": -9}
{"Compound": "NCCOP(=O)(O)OCCNC(=O)COc1ccc(Oc2ccc(Cl)cc2)cc1", "Tested On": "renal hypertensive rats", "Units Of Measure": "mmHg", "Val": -37}

Enquiry: Determine its reported Changes of blood pressure: CC(Oc1ccc(Oc2ccc(Cl)cc2)cc1)C(=O)NCCOP(=O)(O)OCCN (centres unmarked)
Return: -34

###

System: renal hypertensive rats
Experiment: Antihypertensive activity in renal hypertensive rats, i.m. (Table 3)
Format: in vivo, rat
Conditions: 30 mg/kg/day i.m.; 3rd day after withdrawal
Assay Endpoint: Changes of blood pressure after drug withdrawal (mmHg)
Output spec: scalar in mmHg, unitless text.

{"Compound": "CCCCCC=CCC=CCCCCCCCC(=O)NCCCOP(=O)(O)OCCN [(4)]", "Units Of Measure": "mmHg", "Val": -2}
{"Compound": "CCC=CCC=CCC=CCCCCCCCC(=O)NCCOP(=O)(O)OCCN [(1)]", "Units Of Measure": "mmHg", "Val": -4}
{"Compound": "CCCCCC=CCC=CCCCCCCCC(=O)NCCOP(=O)(O)OCCN [(3)]", "Units Of Measure": "mmHg", "Val": -1}
{"Compound": "CCCCCC=CCC=CCC=CCC=CCCCC(=O)OCC(COP(=O)(O)OCCN)OC(=O)CCCCCCCCCCCCCCCCC (racemic) [(a), reference compound]", "Units Of Measure": "mmHg", "Val": -1}
{"Compound": "CCC=CCC=CCC=CCCCCCCCC(=O)OCC(COP(=O)(O)OCCN)OC(=O)CCCCCCCCCCCCCCCCC (racemic) [(b), reference compound]", "Units Of Measure": "mmHg", "Val": -1}

Next up:
Enquiry: Determine its reported Changes of blood pressure after drug withdrawal: CCC=CCC=CCC=CCCCCCCCC(=O)NCCCOP(=O)(O)OCCN [Compound (2)]
Return: -7

###

System: renal hypertensive rats
Assay: Antihypertensive activity in rats, p.o. (Table 4)
Format: in vivo, rat
Conditions: 100 mg/kg/day p.o.; 7th day, 0 h (immediately before administration)
Assay Endpoint: Changes of blood pressure (mmHg)
Output spec: scalar in mmHg, unitless text.

Below, 3 compounds whose answers are already recorded.
{"Compound": "CC(Oc1ccc(Oc2ccc(Cl)cc2)cc1)C(=O)NCCCOP(=O)(O)OCCN (centres unmarked)", "Changes of blood pressure (mmHg)": -13}
{"Compound": "CC(Oc1ccc(Oc2ccc(Cl)cc2)cc1)C(=O)NCCOP(=O)(O)OCCN (centres unmarked)", "Changes of blood pressure (mmHg)": -36}
{"Compound": "NCCOP(=O)(O)OCCCNC(=O)COc1ccc(Oc2ccc(Cl)cc2)cc1", "Changes of blood pressure (mmHg)": -18}

Next up:
Enquiry: Determine its reported Changes of blood pressure: NCCOP(=O)(O)OCCNC(=O)COc1ccc(Oc2ccc(Cl)cc2)cc1
Return: -40
